The reported numbers originate from PubChem BioAssay (EPA / NIEHS).

Read-out: Urokinase-type plasminogen activator receptor (uPAR), PLAUR (gene 5329)
Protocol: BSK_4H_uPAR: BioMAP Diversity Plus: 4H Assay for Urokinase-type plasminogen activator receptor (uPAR) Biomarker Activity (AID 2283030)
Conditions used: primary human endothelial cells (HUVEC); actives raise or lower the signal
Activity calls are given as the source filed them. How the source made its calls: active means hit-call score of the fitted dose curve at least 0.9, where 1 is the maximum; inactive means score below 0.9.
Just give me one of these, please: active, inactive

Field: outcome | Entry: CCOP(=S)(Oc1cnc(C(C)(C)C)nc1)OC(C)C (stereo not drawn)
inactive

For `CN(C)[C@@H]1C(=O)C(C(N)=O)=C(O)[C@@]2(O)C(=O)C3=C(O)c4c(O)cccc4[C@@](C)(O)[C@H]3[C@H](O)[C@@H]12` , which call appears in the assay record?
inactive

Record lookup: outcome of this test for `CC[C@H](C)[C@H]1O[C@]2(C=C[C@@H]1C)C[C@@H]1C[C@@H](C/C=C(\C)[C@@H](O[C@H]3C[C@H](OC)[C@@H](O[C@H]4C[C@H](OC)[C@@H](NC)[C@H](C)O4)[C@H](C)O3)[C@@H](C)/C=C/C=C3\CO[C@@H]4[C@H](O)C(C)=C[C@@H](C(=O)O1)[C@]34O)O2` ?
active

Tell me the recorded outcome of this test for `C[N+]1(C)CCCCC1` .
inactive

Outcome? `C#CC(C)(C)NC(=O)c1cc(Cl)cc(Cl)c1`
inactive

How was CCc1cnc(C2=NC(C)(C(C)C)C(=O)N2)c(C(=O)O)c1 (stereo not drawn) classified in this test?
inactive

What did this assay record as the result for `CSc1nc(NC(C)C)nc(NC(C)C)n1` ?
inactive

Called result for `COc1cccc(C(=O)NN(C(=O)c2cc(C)cc(C)c2)C(C)(C)C)c1C`
inactive

###

Measured target: Androgen Receptor/SRC-1 Co-activator, AR (gene 367) (UniProt P10275)
Sequence (P10275 whole entry, looked up): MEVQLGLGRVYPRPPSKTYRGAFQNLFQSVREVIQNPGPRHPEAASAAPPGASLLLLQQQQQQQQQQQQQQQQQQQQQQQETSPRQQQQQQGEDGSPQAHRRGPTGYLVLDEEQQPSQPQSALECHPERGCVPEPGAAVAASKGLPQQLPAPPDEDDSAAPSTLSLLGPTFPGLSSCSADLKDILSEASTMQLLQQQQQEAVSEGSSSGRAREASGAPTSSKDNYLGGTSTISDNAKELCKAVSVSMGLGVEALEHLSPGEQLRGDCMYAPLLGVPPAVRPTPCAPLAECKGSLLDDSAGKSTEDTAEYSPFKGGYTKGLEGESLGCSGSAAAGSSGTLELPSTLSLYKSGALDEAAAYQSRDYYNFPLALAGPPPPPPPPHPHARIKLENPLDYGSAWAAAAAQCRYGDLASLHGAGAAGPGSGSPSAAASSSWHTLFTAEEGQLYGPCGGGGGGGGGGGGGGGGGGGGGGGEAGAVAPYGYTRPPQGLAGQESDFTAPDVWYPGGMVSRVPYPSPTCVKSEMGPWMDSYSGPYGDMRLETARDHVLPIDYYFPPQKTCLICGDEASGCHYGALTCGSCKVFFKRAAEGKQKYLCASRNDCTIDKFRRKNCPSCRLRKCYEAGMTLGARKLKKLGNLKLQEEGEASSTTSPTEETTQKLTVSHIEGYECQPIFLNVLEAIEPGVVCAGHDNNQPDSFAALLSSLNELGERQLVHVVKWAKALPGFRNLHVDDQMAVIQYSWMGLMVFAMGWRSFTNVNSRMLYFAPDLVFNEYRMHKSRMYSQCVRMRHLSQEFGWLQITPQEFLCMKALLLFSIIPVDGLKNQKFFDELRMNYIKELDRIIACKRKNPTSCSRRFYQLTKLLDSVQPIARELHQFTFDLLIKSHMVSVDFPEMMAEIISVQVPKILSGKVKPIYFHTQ
Protocol: OT_AR_ARSRC1_0960: Odyssey Thera (OT) 16-hour HEK293T Protein-Complementation Assay for Androgen Receptor/SRC-1 Co-activator (AID 2283353);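 further: actives raise the signal above DMSO so potency reflects increased AR and SRC-1 complex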
Activity calls are given as the source filed them. Rule for the calls: active = hit-call score of the fitted dose curve at least 0.9, where 1 is the maximum; inconclusive = response in the unintended direction; inactive = score below 0.9.
Hello, when you answer, please use one of the following outcomes: Yes = active, No = inactive

I'd appreciate the recorded outcome for `O=c1ccc(=O)[nH][nH]1` from this test.
No

Just curious, what result did `CCc1cccc(CC)c1N(COC)C(=O)CCl` get here?
Yes

Called result for `C[N+]1(C)CCCCC1`
No

I'd appreciate the recorded outcome for CC(COc1ccc(Oc2ccccc2)cc1)Oc1ccccn1 (stereo not given) from this test.
No

Hi team, can someone confirm the assay call for `Nc1c(Cl)cc([N+](=O)[O-])cc1Cl` ?
No

// param item: `CCOC(=O)COc1cc(-c2nn(C)c(OC(F)F)c2Cl)c(F)cc1Cl` ; yields the recorded call
No

Tell me the recorded outcome of this test for `COc1ccc(C(=CC(=O)N2CCOCC2)c2ccc(Cl)cc2)cc1OC` .
No

Outcome? COP(=O)(OC)OC(Br)C(Cl)(Cl)Br (stereo not given)
Yes

Which result was noted for this compound in the test: `N#CSCSC#N`
Yes

State the result this test recorded for `C=C(C)[C@H]1Cc2c(ccc3c2O[C@@H]2COc4cc(OC)c(OC)cc4[C@@H]2C3=O)O1` .
Yes

###

Read-out: Collagen III, COL3A1 (gene 1281)
Protocol: BSK_hDFCGF_CollagenIII: BioMAP Diversity Plus: hDFCGF Assay for Collagen III Biomarker Activity (AID 2283056)
Conditions used: primary human foreskin fibroblasts; actives raise or lower the signal
Active and inactive are the calls of the source. How the source made its calls: active means hit-call score of the fitted dose curve at least 0.9, where 1 is the maximum; inactive means score below 0.9.
Your response should consist of one outcome taken from T = active, F = inactive

Assay outcome for C#CCC1=C(C)C(OC(=O)C2C(C=C(C)C)C2(C)C)CC1=O (stereo not drawn) : what was it?
T

# lookup: test call for `CNC(=O)ON=C(SC)C(=O)N(C)C`
F

Recorded test call requested for `CCCCOC(=O)c1ccccc1C(=O)O`
F
